These data points were gathered from the supplement of paper PMC13172266.

- Tested on: U2932 TK216-resistant clone 3
- measurement-notes: cell proliferation relative to vehicle (% of vehicle); higher = less growth inhibition
- conditions-used: 50 nM; 72 h
Counter-ions that a name gives are not always drawn.
measure-name: cell proliferation

INSERT INTO assay_data (molecule, endpoint_result) VALUES
  ('COc1cc2c(c(OC)c1OC)-c1c(cc3c(c1OC)OCO3)CC(C)C(C)C2 (centres undefined) [Schisandrin B (Sch B)]', 108),
  ('Cc1nnc(C(C)C)n1C1C[C@H]2CC[C@@H](C1)N2CC[C@H](NC(=O)C1CCC(F)(F)CC1)c1ccccc1 (stereo in doubt) [Maraviroc]', 96),
  ('CC/C(=C(\c1ccccc1)c1ccc(OCCN(C)C)cc1)c1ccccc1 [Tamoxifen Citrate]', 89),
  ('COc1cc2ncnc(Oc3ccc(CC(=O)Nc4cnn(C(C)C)c4)cc3)c2cc1OC', 104);

----------
- System: U2932 TK216-resistant clone 2
- measurement-notes: cell proliferation relative to vehicle (% of vehicle); higher = less growth inhibition
- conditions-used: 50 nM; 72 h
Lab note: compare cell proliferation against 100. Equal or greater, write met. Smaller, write not met.

INSERT INTO results (compound, label) VALUES
  ('C[C@H](NC(=O)/C(C#N)=C/c1cccc(Br)n1)c1ccccc1', 'met'),
  ('Cc1[nH]c2ccccc2c1CCNCc1ccc(/C=C/C(=O)NO)cc1 [Panobinostat (LBH589)]', 'not met'),
  ('Cc1cc(Nc2nc(N[C@@H](C)c3ncc(F)cn3)ncc2Cl)[nH]n1', 'met'),
  ('Cc1cc(Nc2cc(N3CCN(C)CC3)nc(/C=C/c3ccccc3)n2)n[nH]1', 'not met'),
  ('COc1cc(Nc2ncc(F)c(Nc3ccc4c(n3)NC(=O)C(C)(C)O4)n2)cc(OC)c1OC', 'met'),
  ('COc1ccc(-n2c(SCCCN3C(=O)c4cccc5cccc(c45)C3=O)nnc2-c2ccncc2)cc1', 'met'),
  ('CCOc1cc(C(=O)N2CCC(N3CCN(C)CC3)CC2)ccc1Nc1ncc2c(n1)N(C1CCCC1)c1ccccc1C(=O)N2C', 'not met'),
  ('Cc1[nH]c(/C=C2\C(=O)Nc3ccc(S(=O)(=O)Cc4c(Cl)cccc4Cl)cc32)c(C)c1C(=O)N1CCC[C@@H]1CN1CCCC1', 'met'),
  ('Cc1nc(Nc2ncc(C(=O)Nc3c(C)cccc3Cl)s2)cc(N2CCN(CCO)CC2)n1 [Dasatinib]', 'not met'),
  ('O=C(NC[C@H](O)CO)c1ccncc1Nc1ccc(I)cc1F', 'not met'),
  ('CNC(=O)c1ccccc1Sc1ccc2c(/C=C/c3ccccn3)n[nH]c2c1 [Axitinib]', 'met');

----------
- Tested on: U2932 TK216-resistant clone 2
- measurement-notes: cell proliferation relative to vehicle (% of vehicle); higher = less growth inhibition
- conditions-used: 500 nM; 72 h
Lab note: compare cell proliferation against 90. Equal or greater, write condition met. Smaller, write condition not met.

INSERT INTO results (structure, label) VALUES
  ('Cc1nc(NC(=O)N2CCC[C@H]2C(N)=O)sc1-c1ccnc(C(C)(C)C(F)(F)F)c1', 'condition not met'),
  ('O=C(NOC[C@H](O)CO)c1ccc(F)c(F)c1Nc1ccc(I)cc1F', 'condition met'),
  ('C[C@@H]1CC(=O)c2c(ccc3c2C(=O)c2cccc(O)c2C3=O)C1', 'condition met');

----------
Recorded cell proliferation by entry
- System: U2932 TK216-resistant clone 3
- measurement-notes: cell proliferation relative to vehicle (% of vehicle); higher = less growth inhibition
- conditions-used: 500 nM; 72 h
measure-name: cell proliferation

INSERT INTO results (molecule, measure_name, endpoint_result) VALUES
  ('CC(C)N(C[C@H]1O[C@@H](n2cnc3c(N)ncnc32)[C@H](O)[C@@H]1O)[C@H]1C[C@@H](CCc2nc3cc(C(C)(C)C)ccc3[nH]2)C1', 'cell proliferation', 91.6),
  ('COc1cc(C(=O)N2CCC(N3CCN(C)CC3)CC2)ccc1Nc1ncc2c(n1)N(C)c1ccccc1C(=O)N2C', 'cell proliferation', 100),
  ('NC(=O)Nc1sc(-c2ccc(F)cc2)cc1C(N)=O', 'cell proliferation', 102),
  ('CC(=O)O[C@@]12CO[C@@H]1C[C@H](O)[C@@]1(C)C(=O)[C@H](O)C3=C(C)[C@@H](OC(=O)[C@H](O)[C@@H](NC(=O)OC(C)(C)C)c4ccccc4)C[C@@](O)([C@@H](OC(=O)c4ccccc4)[C@H]21)C3(C)C [Docetaxel]', 'cell proliferation', 6.54),
  ('Cc1nc(Nc2ncc(C(=O)Nc3c(C)cccc3Cl)s2)cc(N2CCN(CCO)CC2)n1 [Dasatinib]', 'cell proliferation', 52.4),
  ('COc1ccc(C2=N[C@H](c3ccc(Cl)cc3)[C@H](c3ccc(Cl)cc3)N2C(=O)N2CCNC(=O)C2)c(OC(C)C)c1 [Nutlin-3b]', 'cell proliferation', 107),
  ('COc1cc(OCc2cccc(-c3ccccc3)c2C)cc(OC)c1CN1CCCC[C@H]1C(=O)O [PD-1/PD-L1 inhibitor 1]', 'cell proliferation', 104);

----------
- Tested on: U2932 TK216-resistant clone 2
- measurement-notes: cell proliferation relative to vehicle (% of vehicle); higher = less growth inhibition
- conditions-used: 500 nM; 72 h
// thresholds for cell proliferation classes: lo = under 90, mid = from 90 up to 100, hi = 100 and over

INSERT INTO results (compound, label) VALUES
  ('CC(C=CC(=O)NO)=CC(C)C(=O)c1ccc(N(C)C)cc1 (centres undefined) [Trichostatin A (TSA)]', 'lo'),
  ('C[C@@H]1C[C@H]2[C@@H]3CCC4=CC(=O)C=C[C@]4(C)[C@@]3(F)[C@@H](O)C[C@]2(C)[C@@]1(O)C(=O)CO [Dexamethasone (DHAP)]', 'lo'),
  ('CC(C)(C)c1cnc(CSc2cnc(NC(=O)C3CCNCC3)s2)o1', 'lo'),
  ('O=C1CCC(N2C(=O)c3ccccc3C2=O)C(=O)N1 (centres undefined) [Thalidomide]', 'hi'),
  ('CCN(c1cc(-c2ccc(CN3CCOCC3)cc2)cc(C(=O)NCc2c(C)cc(C)[nH]c2=O)c1C)C1CCOCC1', 'lo'),
  ('Cn1cc(C2=C(c3ccc(Cl)cc3Cl)C(=O)NC2=O)c2ccccc21', 'mid'),
  ('N=C1NC(=O)/C(=C/c2ccc(O)cc2)S1 [Mirin]', 'mid'),
  ('OCCn1cc(-c2ccc3c(c2)CC/C3=N\O)c(-c2ccncc2)n1', 'hi'),
  ('N#CC[C@H](C1CCCC1)n1cc(-c2ncnc3[nH]ccc23)cn1', 'mid'),
  ('O=C(Nc1cccc(Nc2ncc(Br)c(NCCc3cnc[nH]3)n2)c1)N1CCCC1', 'lo'),
  ('Cc1c(CN2CCN(C(=O)[C@H](C)O)CC2)sc2c(N3CCOCC3)nc(-c3cnc(N)nc3)nc12', 'lo'),
  ('C[C@@H]1CCN(C(=O)CC#N)C[C@@H]1N(C)c1ncnc2[nH]ccc12', 'hi'),
  ('CC[C@@]1(O)C(=O)OCc2c1cc1n(c2=O)Cc2cc3cc(O)ccc3nc2-1 [(S)-10-Hydroxycamptothecin]', 'lo'),
  ('O=c1oc2c(O)c(O)cc3c(=O)oc4c(O)c(O)cc1c4c23 [Ellagic acid]', 'hi');

----------
- Test system: U2932 parental
- measurement-notes: cell proliferation relative to vehicle (% of vehicle); higher = less growth inhibition
- conditions-used: 50 nM; 72 h
Lab note: compare cell proliferation against 100. Equal or greater, write 1 (yes). Smaller, write 0 (no).

INSERT INTO assay_data (compound, assay_system, label) VALUES
  ('CCc1c2c(nc3ccc(OC(=O)N4CCC(N5CCCCC5)CC4)cc13)-c1cc3c(c(=O)n1C2)COC(=O)[C@]3(O)CC [Irinotecan]', 'U2932 parental', '0 (no)'),
  ('CC(=O)c1c(C)c2cnc(Nc3ccc(N4CCNCC4)cn3)nc2n(C2CCCC2)c1=O', 'U2932 parental', '0 (no)'),
  ('CC[C@@]1(O)C(=O)OCc2c1cc1n(c2=O)Cc2cc3cc(O)ccc3nc2-1 [(S)-10-Hydroxycamptothecin]', 'U2932 parental', '0 (no)'),
  ('COc1ccc(F)c(F)c1C(=O)c1cnc(NC2CCN(S(C)(=O)=O)CC2)nc1N', 'U2932 parental', '0 (no)'),
  ('CC(=O)Nc1cccc(-n2c(=O)n(C3CC3)c(=O)c3c(Nc4ccc(I)cc4F)n(C)c(=O)c(C)c32)c1', 'U2932 parental', '0 (no)'),
  ('CO[C@H]1C[C@@H]2CC[C@@H](C)[C@@](O)(O2)C(=O)C(=O)N2CCCC[C@H]2C(=O)O[C@H]([C@H](C)C[C@@H]2CC[C@@H](OCCO)[C@H](OC)C2)CC(=O)[C@H](C)/C=C(\C)[C@@H](O)[C@@H](OC)C(=O)[C@H](C)C[C@H](C)/C=C/C=C/C=C/1C [Everolimus (RAD001)]', 'U2932 parental', '0 (no)'),
  ('CC(=O)O[C@H]1C(=O)[C@@]2(C)[C@H]([C@H](OC(=O)c3ccccc3)[C@]3(O)C[C@H](OC(=O)[C@H](O)[C@@H](NC(=O)c4ccccc4)c4ccccc4)C(C)=C1C3(C)C)[C@]1(OC(C)=O)CO[C@@H]1C[C@@H]2O [Paclitaxel]', 'U2932 parental', '0 (no)'),
  ('CNC(=O)c1cc(Oc2ccc(NC(=O)Nc3ccc(Cl)c(C(F)(F)F)c3)c(F)c2)ccn1 [Regorafenib (BAY 73-4506)]', 'U2932 parental', '1 (yes)'),
  ('O=c1cc(N2CCOCC2)oc2c(-c3ccccc3)cccc12', 'U2932 parental', '1 (yes)'),
  ('O=C(/C=C/c1ccc(CN(CCO)CCc2c[nH]c3ccccc23)cc1)NO [LAQ824 (Dacinostat)]', 'U2932 parental', '0 (no)');
